assayed system: rat ALK, purified (rALK) (rat, UniProt P97793 19-1038 (mouse entry), limits assumed)
Sequence (P97793 other isoform, or with tags, fused parts or gaps limits assumed): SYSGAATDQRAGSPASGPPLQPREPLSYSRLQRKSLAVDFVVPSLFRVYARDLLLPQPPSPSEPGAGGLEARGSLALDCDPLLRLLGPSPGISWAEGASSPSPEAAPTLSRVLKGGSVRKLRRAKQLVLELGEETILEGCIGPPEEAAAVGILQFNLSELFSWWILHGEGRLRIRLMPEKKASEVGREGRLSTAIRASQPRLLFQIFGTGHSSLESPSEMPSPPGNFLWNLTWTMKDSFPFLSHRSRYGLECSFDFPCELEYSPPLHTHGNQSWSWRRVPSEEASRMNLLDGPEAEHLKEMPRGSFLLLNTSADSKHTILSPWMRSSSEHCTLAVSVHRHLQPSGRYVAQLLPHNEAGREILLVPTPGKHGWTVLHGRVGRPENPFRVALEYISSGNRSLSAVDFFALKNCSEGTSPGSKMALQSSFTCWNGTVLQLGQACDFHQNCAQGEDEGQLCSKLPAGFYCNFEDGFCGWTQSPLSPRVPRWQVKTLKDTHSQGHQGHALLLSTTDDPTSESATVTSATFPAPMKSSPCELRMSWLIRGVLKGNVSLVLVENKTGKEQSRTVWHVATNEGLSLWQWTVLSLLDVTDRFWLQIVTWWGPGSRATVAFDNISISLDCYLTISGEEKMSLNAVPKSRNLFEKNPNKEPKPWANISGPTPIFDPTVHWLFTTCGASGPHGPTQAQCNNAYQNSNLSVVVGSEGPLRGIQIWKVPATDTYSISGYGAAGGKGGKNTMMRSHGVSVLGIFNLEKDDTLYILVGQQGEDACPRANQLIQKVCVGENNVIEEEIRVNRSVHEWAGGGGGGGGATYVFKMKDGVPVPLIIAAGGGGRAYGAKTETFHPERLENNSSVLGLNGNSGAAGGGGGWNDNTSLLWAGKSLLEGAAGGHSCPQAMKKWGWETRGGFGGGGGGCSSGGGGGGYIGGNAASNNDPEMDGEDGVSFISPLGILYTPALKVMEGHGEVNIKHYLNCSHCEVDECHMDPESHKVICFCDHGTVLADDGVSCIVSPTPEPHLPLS
assay method text: BLI (BLitz), estimated monovalent affinity, single dose kinetics
# pKd annotations
For clarity, pKd is expressed as the negative log10 of concentration in mol/L.

Ab402 (antibody, V domains shown, humanized) VH: EVQLVQSGAEVKKPGTSVKLSCKASGYTFTSYWMHWVRQARGQRLEWIGYIKPSSGYTKYAQKFQERVTLTADKSTSTAYMELSSLRSEDTAVYYCARDYYGSSSWFAYWGQGTLVTVSS VL: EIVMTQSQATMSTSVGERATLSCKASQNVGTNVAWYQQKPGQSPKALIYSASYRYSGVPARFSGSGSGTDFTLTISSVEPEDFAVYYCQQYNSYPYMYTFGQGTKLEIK	7.62
Ab355 (antibody, V domains shown, humanized) VH: QVQLVQSGAEVAKPGASVKLSCKASGYTFTSYWMHWVKQAPGQGLEWIGYIKPSSGYTKYNQKFKDKATLTADKSTSTAYMELRSLRSDDTAVYYCARDYYGSSSWFAYWGQGTLVTVSS VL: EIVMTQSPAFLSVTPGEKVTITCKASQNVGTNVAWYQQKPDQAPKALIYSASYRYSGVPSRFSGSGSGTDFTLTISSLEAEDAATYYCQQYNSYPYMYTFGQGTKLEIK	7.51

Exercise: Requested field: pKd. Item: Ab403 (antibody, V domains shown, humanized) VH: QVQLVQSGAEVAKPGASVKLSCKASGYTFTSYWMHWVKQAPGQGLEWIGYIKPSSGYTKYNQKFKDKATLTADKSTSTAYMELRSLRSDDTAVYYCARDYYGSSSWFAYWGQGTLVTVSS VL: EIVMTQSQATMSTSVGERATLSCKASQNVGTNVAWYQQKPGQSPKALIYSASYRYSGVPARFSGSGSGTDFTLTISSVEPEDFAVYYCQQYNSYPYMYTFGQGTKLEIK
Solution: 7.66
